# ASSAY_DETAILS: Ex vivo permeation across porcine nasal mucosa in Franz diffusion cells
# Type: in vitro ADME, Sus scrofa domesticus
# EXPERIMENTAL_CONDITIONS: pig, same-pig (intra-individual) group, n = 3, 8 h Franz diffusion; read-out: mean Papp before thickness normalization
MEASURED_ATTRIBUTE: Papp at 8 h, 1008 μg/mL (×10⁻⁶ cm/s)
One number for each entry, in ×10⁻⁶ cm/s.

Enquiry: Report Papp at 8 h, 1008 μg/mL for COc1ccc2[nH]cc(CCNC(C)=O)c2c1 please.
Return: 14.1

* * *

# ASSAY_DETAILS: Ex vivo permeation across porcine nasal mucosa in Franz diffusion cells
# Type: in vitro ADME, Sus scrofa domesticus
# EXPERIMENTAL_CONDITIONS: pig, different-pig (inter-individual) group, n = 3, simulation-based normalization; read-out: mean Papp after normalization to standardized thickness of 0.80 mm
MEASURED_ATTRIBUTE: Papp at 8 h (×10⁻⁶ cm/s)
One number for each entry, in ×10⁻⁶ cm/s.

O=C([O-])c1ccccc1-c1c2ccc(=O)cc-2oc2cc([O-])ccc12.[Na+].[Na+] [Flu-Na, Fluorescein sodium salt] : 7.33

Enquiry: Report Papp at 8 h for COc1ccc2[nH]cc(CCNC(C)=O)c2c1 [melatonin, Melatonin] please.
Return: 10.5

* * *

Task for the reader: assign each of the following molecules its reported Papp at 8 h.
# ASSAY_DETAILS: Ex vivo permeation across porcine nasal mucosa in Franz diffusion cells
# Format: in vitro ADME, Sus scrofa domesticus
# EXPERIMENTAL_CONDITIONS: pig, same-pig (intra-individual) group, n = 3, simulation-based normalization; read-out: mean Papp after normalization to standardized thickness of 0.80 mm
State the result as a value with its unit after it.

O=C([O-])c1ccccc1-c1c2ccc(=O)cc-2oc2cc([O-])ccc12.[Na+].[Na+] [Flu-Na, Fluorescein sodium salt] : 5.28 ×10⁻⁶ cm/s

Enquiry: Report Papp at 8 h for COc1ccc2[nH]cc(CCNC(C)=O)c2c1 please.
Return: 10 ×10⁻⁶ cm/s

* * *

# ASSAY_DETAILS: Ex vivo permeation across porcine nasal mucosa in Franz diffusion cells
# Assay type: in vitro ADME, Sus scrofa domesticus
# EXPERIMENTAL_CONDITIONS: pig, different-pig (inter-individual) group, n = 3, 8 h Franz diffusion; read-out: mean Papp before thickness normalization
MEASURED_ATTRIBUTE: Papp at 8 h (×10⁻⁶ cm/s)
One number for each entry, in ×10⁻⁶ cm/s.

Enquiry: Report Papp at 8 h for COc1ccc2[nH]cc(CCNC(C)=O)c2c1 [melatonin, Melatonin] please.
Return: 14.6
